- Subject Of Test: VEGFR2 (Homo sapiens)
- Sequence (P35968 20-1356): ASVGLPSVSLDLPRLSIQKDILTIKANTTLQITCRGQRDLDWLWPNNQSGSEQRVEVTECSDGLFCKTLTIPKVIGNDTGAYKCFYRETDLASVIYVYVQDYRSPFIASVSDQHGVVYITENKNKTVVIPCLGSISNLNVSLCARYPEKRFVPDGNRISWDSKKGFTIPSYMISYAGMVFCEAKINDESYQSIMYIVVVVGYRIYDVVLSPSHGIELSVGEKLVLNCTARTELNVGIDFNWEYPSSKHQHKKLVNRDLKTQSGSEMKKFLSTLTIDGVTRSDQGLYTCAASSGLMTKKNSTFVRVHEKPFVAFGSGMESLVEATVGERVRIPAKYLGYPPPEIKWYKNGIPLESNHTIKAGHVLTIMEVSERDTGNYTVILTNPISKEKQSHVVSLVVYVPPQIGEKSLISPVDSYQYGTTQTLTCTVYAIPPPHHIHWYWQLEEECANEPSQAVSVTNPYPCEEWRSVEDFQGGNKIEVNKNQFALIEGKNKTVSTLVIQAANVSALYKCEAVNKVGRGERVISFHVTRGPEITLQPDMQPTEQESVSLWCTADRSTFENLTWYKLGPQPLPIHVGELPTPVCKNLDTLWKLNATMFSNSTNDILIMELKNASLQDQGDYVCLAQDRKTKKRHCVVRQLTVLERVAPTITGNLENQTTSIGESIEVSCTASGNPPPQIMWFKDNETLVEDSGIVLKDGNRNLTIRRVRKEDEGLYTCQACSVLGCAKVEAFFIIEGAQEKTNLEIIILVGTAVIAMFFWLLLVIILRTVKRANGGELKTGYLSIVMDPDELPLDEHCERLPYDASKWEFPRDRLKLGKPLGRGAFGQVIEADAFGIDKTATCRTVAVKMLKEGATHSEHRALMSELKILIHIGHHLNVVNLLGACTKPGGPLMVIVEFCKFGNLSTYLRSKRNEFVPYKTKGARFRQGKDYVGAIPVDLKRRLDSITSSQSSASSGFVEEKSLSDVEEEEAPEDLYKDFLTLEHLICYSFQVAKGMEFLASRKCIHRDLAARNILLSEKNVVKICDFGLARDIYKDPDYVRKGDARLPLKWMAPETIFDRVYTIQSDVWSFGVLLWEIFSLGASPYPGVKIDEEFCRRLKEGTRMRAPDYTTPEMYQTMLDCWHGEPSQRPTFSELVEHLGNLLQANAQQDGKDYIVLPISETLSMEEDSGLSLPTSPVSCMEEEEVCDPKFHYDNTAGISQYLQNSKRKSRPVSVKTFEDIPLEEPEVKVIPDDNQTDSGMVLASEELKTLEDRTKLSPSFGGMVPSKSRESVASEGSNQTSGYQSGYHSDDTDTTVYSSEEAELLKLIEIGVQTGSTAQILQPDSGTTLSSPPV
Assay Metric: IC50

Q) What value of measured IC50 is listed for `Cc1c(C#N)cccc1[C@@H](C)Nc1nnc(C)c2cnc(N3CCOCC3)cc12` ?
A) > 10 µM

----------
- Subject Of Test: HRH1 (Homo sapiens)
- Sequence (P35367 whole entry): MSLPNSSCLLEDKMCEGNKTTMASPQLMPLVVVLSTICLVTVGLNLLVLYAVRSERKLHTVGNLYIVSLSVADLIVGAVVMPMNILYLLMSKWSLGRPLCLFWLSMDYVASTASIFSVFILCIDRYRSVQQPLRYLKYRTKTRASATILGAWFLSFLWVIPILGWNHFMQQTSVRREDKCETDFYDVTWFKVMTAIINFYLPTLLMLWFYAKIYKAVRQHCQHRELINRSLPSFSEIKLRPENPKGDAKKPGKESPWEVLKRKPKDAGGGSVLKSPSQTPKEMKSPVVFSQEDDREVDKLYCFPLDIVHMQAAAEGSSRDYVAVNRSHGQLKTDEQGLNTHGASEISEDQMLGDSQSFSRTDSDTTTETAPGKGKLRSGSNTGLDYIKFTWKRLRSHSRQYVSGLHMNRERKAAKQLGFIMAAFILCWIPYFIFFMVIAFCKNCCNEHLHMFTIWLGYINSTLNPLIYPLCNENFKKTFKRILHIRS
- Method: Safetyscan Calcium Flux
- Protocol Conditions: agonist mode, read-out: RC50 (EC50) HRH1 Agonist
Assay Metric: EC50

Q) Would you mind telling me what EC50 value was observed for `Cc1c(C#N)cccc1[C@@H](C)Nc1nnc(C)c2cnc(N3CCOCC3)cc12` ?
A) > 10 µM

----------
- Subject Of Test: AVPR1A (Homo sapiens)
- Sequence (P37288 whole entry): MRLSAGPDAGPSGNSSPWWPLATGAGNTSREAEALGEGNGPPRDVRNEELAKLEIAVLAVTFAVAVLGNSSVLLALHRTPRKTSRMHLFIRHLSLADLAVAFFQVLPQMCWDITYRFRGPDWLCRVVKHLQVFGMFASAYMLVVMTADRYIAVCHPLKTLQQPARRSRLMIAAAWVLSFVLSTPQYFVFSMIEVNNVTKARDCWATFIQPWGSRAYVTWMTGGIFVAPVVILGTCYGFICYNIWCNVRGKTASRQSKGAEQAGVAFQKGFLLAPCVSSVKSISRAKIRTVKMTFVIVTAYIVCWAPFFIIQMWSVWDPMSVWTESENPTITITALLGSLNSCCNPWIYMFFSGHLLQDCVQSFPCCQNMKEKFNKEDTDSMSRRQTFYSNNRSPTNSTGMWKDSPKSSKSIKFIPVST
- Method: Safetyscan Calcium Flux
- Protocol Conditions: antagonist mode, read-out: RC50 (IC50) AVPR1A Antagonist
Assay Metric: IC50

Q) I am curious: what IC50 value has been reported for `Cc1c(C#N)cccc1[C@@H](C)Nc1nnc(C)c2cnc(N3CCOCC3)cc12` ?
A) > 10 µM
